Test system: Hepatitis B virus
Assay notes: Decrease in hepatitis B viral surface antigen HBeAg secretion in human HepG2(2.2.15) cells at 0.75 to 3 uM after 72 hrs by EIA analysis
Assay type: functional, organism-based
Test context: HepG2 2.2.15, 72 h
Observation type: pIC50
The read-out pIC50 is expressed as -log10 of concentration in moles per litre.

# get_value(readout= pIC50, system= Hepatitis B virus) for COc1ccc(S(=O)(=O)Oc2cc(OC)ccc2C(C)=O)cc1
5.65

What pIC50 appears in the records for this compound with Hepatitis B virus? COc1ccc(C(C)=O)c(OS(=O)(=O)c2ccc(N)cc2)c1
4.14

Param readout= pIC50; system= Hepatitis B virus; entry= COc1ccc(C(C)=O)c(OS(=O)(=O)c2ccccc2)c1 ; returns value.
4.78

Give the reported pIC50 for COc1ccc(C(C)=O)c(OS(=O)(=O)c2ccc([N+](=O)[O-])cc2)c1 (system: Hepatitis B virus).
5.33

Provide value of pIC50 for this record tested with Hepatitis B virus: COc1ccc(C(C)=O)c(OS(=O)(=O)c2ccc(F)cc2)c1
4.95

Please state recorded pIC50 (tested on Hepatitis B virus) of COc1ccc(C(C)=O)c(OS(=O)(=O)c2ccc(Br)cc2)c1
5.73

Find the measured pIC50: item COc1ccc(C(C)=O)c(OS(=O)(=O)c2ccc(C)cc2)c1 , target or system Hepatitis B virus.
5.17

Give pIC50 (Hepatitis B virus) of the following compound: COc1ccc(C(C)=O)c(OS(=O)(=O)c2ccc(Cl)cc2)c1
5.38

All figures here come from ChEMBL document CHEMBL3397002.
